assay.readout: melting point

Tell me measured melting point for CC(C)(C)OC(=O)Nc1cc(NCCO)c(I)cc1[N+](=O)[O-] please. 130 to 148 °C

* * *

assay.readout: melting point

Recorded results for 3 compounds are shown here.
compound: CCOC(=O)C1CN(C(C)=O)CCN1CC=CC(=O)Nc1cc2c(Nc3ccc(F)c(Cl)c3)ncnc2cc1OCC1CC1 (configuration not stated)
melting point: 152 to 156 °C

compound: COC(=O)c1ccc(NC(=O)c2cc(C(C)C)c(C(C)C)s2)cc1Cl
melting point: 153 to 154 °C

compound: C/C(C=O)=C\c1ccc([N+](=O)[O-])cc1
melting point: 112 to 114 °C

Tell me measured melting point for Nc1c([N+](=O)[O-])cc(O)cc1[N+](=O)[O-] please. 230 °C

Tell me measured melting point for O=C(O)c1cnc(-c2ccccc2OCC2CC2)[nH]c1=O please. 219 to 220 °C

Tell me measured melting point for Cc1nc(N)c2nc(C)n(CCNC(=O)C(C)C)c2c1C please. 220 to 222 °C

* * *

Listed next: entries and their corresponding melting point.

Recorded results for 5 compounds are shown here.
compound: CSc1ccc(N2CCN(CCCOc3ccc(C4=NCCO4)cc3)CC2)nn1
melting point: 163 °C

compound: O=S(=O)(c1ccccc1)N1CCC(C(O)(c2ccc(F)cc2)c2ccc(F)cc2)CC1
melting point: 142 to 144 °C

compound: C[C@H]1c2ccccc2N(C(=O)CCl)[C@H]1C (relative stereo)
melting point: 83 to 84 °C

compound: O=C(NCc1ccccc1)c1cn2c(=O)n(Cc3ccc(Cl)c(Cl)c3)c(=O)cc2s1
melting point: 216 to 217 °C

compound: CS(=O)(=O)c1ccc(C2SCC(=O)N2c2ccc(Cl)cc2)cc1 (centres undefined)
melting point: 231 to 233 °C

Tell me measured melting point for O=C(Nc1nc(NC(=O)c2cccnc2)nc(NC(=O)c2cccnc2)n1)c1cccnc1 please. 276 to 278 °C

Tell me measured melting point for N#CC1C(=O)NC(=O)C(C(=O)O)C12CCCCC2 (centres undefined) please. 210 to 214 °C

Tell me measured melting point for Cc1ccc(N(C)c2ccco2)cc1O please. 127 to 128 °C

Tell me measured melting point for CC1CC(=O)NN=C1c1ccc(NN=C(c2ccc(O)cc2O)c2ccc(O)cc2O)cc1 (centres undefined) please. 150 to 175 °C

Tell me measured melting point for C=CCOC(=O)C1=C(C)NC(C)=C(C(=O)OC)C1c1ccccc1F (centres undefined) please. 130 °C

Tell me measured melting point for COc1ccccc1-c1ccc(C[C@@H](NC(=O)c2c(Cl)cccc2Cl)C(=O)O)cc1 please. 195 °C

* * *

assay.readout: melting point

Recorded results for 5 compounds are shown here.
compound: O=C(c1ccc(F)cc1)C1CCN(CCn2c(=O)[nH]c3sccc3c2=O)CC1
experimental.result: 231 to 235 °C
--
compound: O=C(O)CC=CC12CC(c3ccccc31)c1ccccc12
experimental.result: 166 to 167 °C
--
compound: CS(=O)(=O)c1cccc(Cc2cc3cccc(-c4cccc(C(=O)NCC(N)=O)c4)c3s2)c1
experimental.result: 189 to 193 °C
--
compound: O=C(c1ccccc1Nc1ccc(O)cc1)N1CCCCC1
experimental.result: 199 to 201 °C
--
compound: O=C1CCC(c2ccccc2)(c2ccccc2)[C@@H]2CN(C(=S)Cc3ccccc3)C[C@H]12 (racemic)
experimental.result: 221 °C

Tell me measured melting point for O=C1CC(c2ccc(Cl)cc2)Oc2ccccc21 (stereo not given) please. 96 to 98 °C

Tell me measured melting point for CC(C)OC(=O)c1cc(N)c(F)c(F)n1 please. 167 to 168 °C

Tell me measured melting point for Fc1ccc(C(c2ccccc2)(c2ccccc2)n2ccnc2)cc1 please. 146 °C

Tell me measured melting point for CCNC(=O)c1nc(-c2ccccc2)c(-c2ccc(=O)n(C(C)C)n2)s1 please. 172 to 174 °C

Tell me measured melting point for Cn1c(C(F)(F)F)cc(=O)n(-c2cc(OC(=O)NC3CCCCC3)c(Cl)cc2F)c1=O please. 171 to 173 °C

* * *

Listed next: entries and their corresponding melting point.

Recorded results for 3 compounds are shown here.
compound: CC(C(=O)O)c1ccc(N=c2sccn2C)c(Cl)c1 (stereo not given)
melting point: 132 to 133 °C
--
compound: CN(C)CCNc1ccc(-c2n[nH]c3ncccc23)cc1
melting point: 165 to 167 °C
--
compound: CS(=O)(=O)c1ccc(Oc2cc(OCc3cccc(Cl)n3)c3[nH]c(C4=NCC(CC(=O)O)S4)cc3c2)cc1 (stereo not given)
melting point: 175 to 176 °C

Tell me measured melting point for CCOC(=O)c1cc(C#N)c(C)nc1O please. 212 to 213 °C

Tell me measured melting point for CCOc1ccc(CC2CCN(CCCCNC(=O)c3ccc(-c4ccc(C(F)(F)F)cc4)cc3)CC2)c(OCC)c1 please. 136 to 137 °C

Tell me measured melting point for NS(=O)(=O)c1nc(-c2ccc([N+](=O)[O-])cc2)c[nH]1 please. 227 to 229 °C

Tell me measured melting point for COc1ccc(C(CC#N)CC#N)cc1O please. 90 to 92 °C

Tell me measured melting point for CC(Sc1ccc(Cl)cc1Cl)C(=O)O (racemic) please. 95 to 98 °C

Tell me measured melting point for Cc1cccc(C(C)(C)C)c1NC(=O)NC1(c2cccs2)CCCCC1 please. 245 to 246 °C

Tell me measured melting point for NC(=O)c1nc(-c2cccc(C3=Nc4ccc(-n5cccc5)cc4NC(=O)C3)c2)cs1 please. 267 to 269 °C

* * *

Listed next: entries and their corresponding melting point.

compound: CCCCCCCCCCCCc1cc(N)no1
assay.readout: melting point
experimental.result: 79.5 to 81 °C

Tell me measured melting point for CCCCCC(CC(=O)Nc1cc(C(N)=O)ccc1C(C)(C)C)c1ccc(OCCOC)cc1OC (stereo not given) please. 134 to 135 °C

* * *

Listed next: entries and their corresponding melting point.

Recorded results for 3 compounds are shown here.
compound: Cc1oc(-c2ccc(Cl)cc2)cc1C(=O)Nc1cc(Cl)ccc1-c1noc(=O)[nH]1
experimental.result: 248 to 251 °C
--
compound: Cc1ncoc1C(C)(O)c1ccccc1 (stereo unspecified)
experimental.result: 102 to 104 °C
--
compound: O=C1Nc2ccccc2/C1=C/c1c[nH]c2ncccc12
experimental.result: > 280 °C

Tell me measured melting point for CS(=O)(=O)NC1CC(N)(C(=O)O)C2C(C(=O)O)C12 (stereo unspecified) please. > 275 °C

* * *

assay.readout: melting point

Recorded results for 2 molecules are shown here.
molecule: COc1ccc(C(=O)c2cc(F)ccc2F)c(O)c1Cl
melting point: 178 to 180 °C
--
molecule: CCCC(=O)c1cnc2c(OC)cccc2c1Nc1ccccc1OC
melting point: 159 to 161 °C

// next item, melting point requested
Tell me measured melting point for OC[C@H](O)[C@H](O)COc1nc(N2CCNCC2)nc2ccccc12 (racemic) please. 168 to 172 °C

* * *

Listed next: entries and their corresponding melting point.

Recorded results for 6 molecules are shown here.
molecule: CSC1CCn2c(CCc3ccccc3)nc3cccc1c32 (stereo not given)
experimental.result: 62.1 to 74.1 °C
--
molecule: O=C1NC(=O)C(Nc2cccc(-c3ccc(OCc4ccc5ccccc5n4)cc3)c2)S1 (stereo not given)
experimental.result: 132 to 133 °C
--
molecule: COC(=O)c1c(Cc2ccc(S(=O)(=O)N3CCN(C)CC3)cc2)c(=O)c2ccccc2n1-c1ccccc1
experimental.result: 210 to 212 °C
--
molecule: COC(=O)C1=C(O)c2c(c3cc(OC)ccc3n2C)S(=O)(=O)N1C
experimental.result: 200 to 201 °C
--
molecule: CCC(O)(c1ccc(O)cc1)c1cccc(C(F)(F)F)c1 (stereo not given)
experimental.result: 102 to 103 °C
--
molecule: O=CC1CCC(C2CC[Si](c3ccccc3)(c3ccccc3)CC2)CC1 (stereo not given)
experimental.result: 107 °C

Tell me measured melting point for CN1CCN(c2cccc(Nc3nc4c(-c5ccc(S(C)(=O)=O)cc5)cccn4n3)c2)C(=O)C1 please. 234 to 236 °C

Tell me measured melting point for Cc1nc(NC(=O)c2ccccc2OC(F)(F)F)sc1C(=O)NCc1ccccc1 please. 140 to 141 °C

Tell me measured melting point for CC(Oc1ccc(Oc2ccc(Oc3ccc(OC(C)C(=O)O)cc3)cc2)cc1)C(=O)O (stereo not given) please. 135 to 136 °C

Tell me measured melting point for O=C(NCCCCNS(=O)(=O)c1ccc(Oc2ccccc2)cc1)P(=O)(O)O please. 143 to 145 °C

Tell me measured melting point for O=C(O)c1cc2c3c(ccc2[nH]1)OC[C@H](CO)O3 please. 216 to 217 °C

Tell me measured melting point for COc1ccc(CCc2oc3ccc(Br)cc3c2C(C)=O)cc1 please. 100 to 101 °C

Measured values drawn from a melting point compilation (Tetko et al.; mined from patent text by program, amines drawn as free bases though some values may be those of a salt) for this set.
